For reference, the following pKi results for Coagulation factor X (Homo sapiens, UniProt P00742) were taken from various sources.
FYI, pKi means -log10 of a concentration in mol per litre.

# count of solved cases: 6
N=C(N)c1ccc(Oc2cc(C(=O)N[C@H]3CC[C@H](N)CC3)cc(Oc3ccc(C(=N)N)cc3)n2)cc1 = 6.40
N=C(N)c1cccc(C2=NOC(Cn3cncn3)(C(=O)Nc3ccc(-c4ccccc4S(N)(=O)=O)cc3)C2)c1 (stereo not drawn) = 8.77
COC(=O)C(=O)N[C@H](CCc1cccc[n+]1[O-])C(=O)N1CCC[C@H]1C(=O)NCc1cc(Cl)ccc1CN = 9.20
CC(C)NC(=O)c1ccc(-c2cccc([C@@H]3C[C@](C)(c4ccccc4)c4cc(C(=N)N)ccc4N3)c2)c(C(=O)O)c1 (racemic) = 5.88
CCOC(=O)CN(Cc1cc(F)cc(F)c1)c1ccc2c(c1)N(C)CC(C)(COc1ccc(C(=N)N)cc1)O2 (stereo not drawn) = 5.01
CN1C(=O)C(OCc2ccc(C(=N)N)cc2)Oc2cc(C(=O)Nc3ccccc3)ccc21 (stereo not drawn) = 4.50

Kindly consider the entry below.
Ask: Lab note: record pKi of CCc1ccc(-c2cccc(S(=O)(=O)NC(Cc3cccc(C(=N)N)c3)C(=O)N3CCC(CCN)CC3)c2)cc1 (racemic) tested on Coagulation factor X (Homo sapiens, UniProt P00742).
Reply: 6.20
